# assay-overview: Probe fluorescence ratio response to arachidonic acid relative to ADIFAB2
# Assay type: binding
# assay-conditions: arachidonic acid; response relative to ADIFAB2

# molecule, DR/DR AA
data = [
    ("18V 31V 73I 72A (protein, listed as Rattus norvegicus, PEPTIDE (1)...(131) wild-type rat intestinal fatty acid binding protein) AFDGTWKVDRNENYEKFVEKMGINVVKRKLVAHDNLKLTITQEGNKFTVKESSNFRNIDVVFELGVDFAYSAIDGTELTGTWTMEGNKLVGKFKRVDNGKELIAVREISGNELIQTYTYEGVEAKRIFKKE", 0.863),
    ("72T 73G 74I (protein, listed as Rattus norvegicus, PEPTIDE (1)...(131) wild-type rat intestinal fatty acid binding protein) AFDGTWKVDRNENYEKFMEKMGINVVKRKLGAHDNLKLTITQEGNKFTVKESSNFRNIDVVFELGVDFAYSTGIGTELTGTWTMEGNKLVGKFKRVDNGKELIAVREISGNELIQTYTYEGVEAKRIFKKE", 2.226),
    ("72G 73W (protein, listed as Rattus norvegicus, PEPTIDE (1)...(131) wild-type rat intestinal fatty acid binding protein) AFDGTWKVDRNENYEKFMEKMGINVVKRKLGAHDNLKLTITQEGNKFTVKESSNFRNIDVVFELGVDFAYSGWDGTELTGTWTMEGNKLVGKFKRVDNGKELIAVREISGNELIQTYTYEGVEAKRIFKKE", 2.260),
    ("14W 72M 117A (protein, listed as Rattus norvegicus, PEPTIDE (1)...(131) wild-type rat intestinal fatty acid binding protein) AFDGTWKVDRNENWEKFMEKMGINVVKRKLGAHDNLKLTITQEGNKFTVKESSNFRNIDVVFELGVDFAYSMADGTELTGTWTMEGNKLVGKFKRVDNGKELIAVREISGNELIQTATYEGVEAKRIFKKE", 0.945),
    ("14F, 72A (protein, listed as Rattus norvegicus, PEPTIDE (1)...(131) wild-type rat intestinal fatty acid binding protein) AFDGTWKVDRNENFEKFMEKMGINVVKRKLGAHDNLKLTITQEGNKFTVKESSNFRNIDVVFELGVDFAYSAADGTELTGTWTMEGNKLVGKFKRVDNGKELIAVREISGNELIQTYTYEGVEAKRIFKKE", 0.83),
    ("17I, 72A (protein, listed as Rattus norvegicus, PEPTIDE (1)...(131) wild-type rat intestinal fatty acid binding protein) AFDGTWKVDRNENYEKIMEKMGINVVKRKLGAHDNLKLTITQEGNKFTVKESSNFRNIDVVFELGVDFAYSAADGTELTGTWTMEGNKLVGKFKRVDNGKELIAVREISGNELIQTYTYEGVEAKRIFKKE", 0.64),
    ("23H1, 72A (protein, listed as Rattus norvegicus, PEPTIDE (1)...(131) wild-type rat intestinal fatty acid binding protein) AFDGTWKVDRNENYEKFMEKMGHNVVKRKLGAHDNLKLTITQEGNKFTVKESSNFRNIDVVFELGVDFAYSAADGTELTGTWTMEGNKLVGKFKRVDNGKELIAVREISGNELIQTYTYEGVEAKRIFKKE", 0.16),
    ("14I 38I 72V (protein, listed as Rattus norvegicus, PEPTIDE (1)...(131) wild-type rat intestinal fatty acid binding protein) AFDGTWKVDRNENIEKFMEKMGINVVKRKLGAHDNLKITITQEGNKFTVKESSNFRNIDVVFELGVDFAYSVADGTELTGTWTMEGNKLVGKFKRVDNGKELIAVREISGNELIQTYTYEGVEAKRIFKKE", 0.715),
    ("72S 73L 74A (protein, listed as Rattus norvegicus, PEPTIDE (1)...(131) wild-type rat intestinal fatty acid binding protein) AFDGTWKVDRNENYEKFMEKMGINVVKRKLGAHDNLKLTITQEGNKFTVKESSNFRNIDVVFELGVDFAYSSLAGTELTGTWTMEGNKLVGKFKRVDNGKELIAVREISGNELIQTYTYEGVEAKRIFKKE", 3.336),
    ("31C1, 72A (protein, listed as Rattus norvegicus, PEPTIDE (1)...(131) wild-type rat intestinal fatty acid binding protein) AFDGTWKVDRNENYEKFMEKMGINVVKRKLCAHDNLKLTITQEGNKFTVKESSNFRNIDVVFELGVDFAYSAADGTELTGTWTMEGNKLVGKFKRVDNGKELIAVREISGNELIQTYTYEGVEAKRIFKKE", 0.32),
    ("21W, 72A (protein, listed as Rattus norvegicus, PEPTIDE (1)...(131) wild-type rat intestinal fatty acid binding protein) AFDGTWKVDRNENYEKFMEKWGINVVKRKLGAHDNLKLTITQEGNKFTVKESSNFRNIDVVFELGVDFAYSAADGTELTGTWTMEGNKLVGKFKRVDNGKELIAVREISGNELIQTYTYEGVEAKRIFKKE", 3.70),
]

The reported measurements were obtained from patent US20060257938A1.
